Measured values drawn from patent US20040229810A1 for this set.

# Assay Overview: in vivo
# Run Conditions: male, cynomolgus monkey, iv, 30 ug/kg
Where a SMILES comes first, the peptide text is derived from it. [ ]: non-standard residue; d: D form. pGlu = O=C1CC[C@@H](C(=O)O)N1

| Compound | Units Of Measure | Cmax |
| --- | --- | --- |
| CC(C)C[C@H](NC(=O)[C@H](Cc1c[nH]c2ccccc12)NC(=O)CNC(=O)[C@H](Cc1ccc(O)cc1)NC(=O)[C@H](C)NC(=O)[C@H](CCC(=O)O)NC(=O)[C@H](CCC(=O)O)NC(=O)[C@H](CCC(=O)O)NC(=O)[C@H](CCC(=O)O)NC(=O)[C@H](CCC(=O)O)NC(=O)[C@H](CC(C)C)NC(=O)[C@H](Cc1c[nH]c2ccccc12)NC(=O)[C@@H]1CCCN1C(=O)CNC(=O)[C@@H]1CCC(=O)N1)C(=O)N[C@@H](CC(=O)O)C(=O)N[C@@H](Cc1ccccc1)C(N)=O [Compound B] ([pGlu]GPWLEEEEEAYGWLDF-NH2) | ng/mL | 268 |

###

# Assay Overview: in vivo
# Run Conditions: male, cynomolgus, cynomolgus monkey, iv, 10 ug/kg, t ½
Where a SMILES comes first, the peptide text is derived from it. [ ]: non-standard residue; d: D form. pGlu = O=C1CC[C@@H](C(=O)O)N1
Reported Property: half-life

| Molecule | Reading |
| --- | --- |
| CC(C)C[C@H](NC(=O)[C@H](Cc1c[nH]c2ccccc12)NC(=O)CNC(=O)[C@H](Cc1ccc(O)cc1)NC(=O)[C@H](C)NC(=O)[C@H](CCC(=O)O)NC(=O)[C@H](CCC(=O)O)NC(=O)[C@H](CCC(=O)O)NC(=O)[C@H](CCC(=O)O)NC(=O)[C@H](CCC(=O)O)NC(=O)[C@H](CC(C)C)NC(=O)[C@H](Cc1c[nH]c2ccccc12)NC(=O)[C@@H]1CCCN1C(=O)CNC(=O)[C@@H]1CCC(=O)N1)C(=O)N[C@@H](CC(=O)O)C(=O)N[C@@H](Cc1ccccc1)C(N)=O [Compound B] ([pGlu]GPWLEEEEEAYGWLDF-NH2) | 4 min |

###

# Assay Overview: in vivo
# Run Conditions: male, cynomolgus monkey, iv, 30 ug/kg, t ½
Where a SMILES comes first, the peptide text is derived from it. [ ]: non-standard residue; d: D form. pGlu = O=C1CC[C@@H](C(=O)O)N1

| Molecule | half-life (min) |
| --- | --- |
| CC(C)C[C@H](NC(=O)[C@H](Cc1c[nH]c2ccccc12)NC(=O)CNC(=O)[C@H](Cc1ccc(O)cc1)NC(=O)[C@H](C)NC(=O)[C@H](CCC(=O)O)NC(=O)[C@H](CCC(=O)O)NC(=O)[C@H](CCC(=O)O)NC(=O)[C@H](CCC(=O)O)NC(=O)[C@H](CCC(=O)O)NC(=O)[C@H](CC(C)C)NC(=O)[C@H](Cc1c[nH]c2ccccc12)NC(=O)[C@@H]1CCCN1C(=O)CNC(=O)[C@@H]1CCC(=O)N1)C(=O)N[C@@H](CC(=O)O)C(=O)N[C@@H](Cc1ccccc1)C(N)=O [Compound B] ([pGlu]GPWLEEEEEAYGWLDF-NH2) | 5 |

###

# Assay Overview: in vivo
# Run Conditions: male, cynomolgus, cynomolgus monkey, iv, 10 ug/kg
Where a SMILES comes first, the peptide text is derived from it. [ ]: non-standard residue; d: D form. pGlu = O=C1CC[C@@H](C(=O)O)N1

| Compound | AUC [ng·h/mL] |
| --- | --- |
| CC(C)C[C@H](NC(=O)[C@H](Cc1c[nH]c2ccccc12)NC(=O)CNC(=O)[C@H](Cc1ccc(O)cc1)NC(=O)[C@H](C)NC(=O)[C@H](CCC(=O)O)NC(=O)[C@H](CCC(=O)O)NC(=O)[C@H](CCC(=O)O)NC(=O)[C@H](CCC(=O)O)NC(=O)[C@H](CCC(=O)O)NC(=O)[C@H](CC(C)C)NC(=O)[C@H](Cc1c[nH]c2ccccc12)NC(=O)[C@@H]1CCCN1C(=O)CNC(=O)[C@@H]1CCC(=O)N1)C(=O)N[C@@H](CC(=O)O)C(=O)N[C@@H](Cc1ccccc1)C(N)=O [Compound B] ([pGlu]GPWLEEEEEAYGWLDF-NH2) | 15.7 |
